study_target: T1R umami taste receptor (Homo sapiens, UniProt Q7RTX0+Q7RTX1)
Sequence (Q7RTX1 21-841): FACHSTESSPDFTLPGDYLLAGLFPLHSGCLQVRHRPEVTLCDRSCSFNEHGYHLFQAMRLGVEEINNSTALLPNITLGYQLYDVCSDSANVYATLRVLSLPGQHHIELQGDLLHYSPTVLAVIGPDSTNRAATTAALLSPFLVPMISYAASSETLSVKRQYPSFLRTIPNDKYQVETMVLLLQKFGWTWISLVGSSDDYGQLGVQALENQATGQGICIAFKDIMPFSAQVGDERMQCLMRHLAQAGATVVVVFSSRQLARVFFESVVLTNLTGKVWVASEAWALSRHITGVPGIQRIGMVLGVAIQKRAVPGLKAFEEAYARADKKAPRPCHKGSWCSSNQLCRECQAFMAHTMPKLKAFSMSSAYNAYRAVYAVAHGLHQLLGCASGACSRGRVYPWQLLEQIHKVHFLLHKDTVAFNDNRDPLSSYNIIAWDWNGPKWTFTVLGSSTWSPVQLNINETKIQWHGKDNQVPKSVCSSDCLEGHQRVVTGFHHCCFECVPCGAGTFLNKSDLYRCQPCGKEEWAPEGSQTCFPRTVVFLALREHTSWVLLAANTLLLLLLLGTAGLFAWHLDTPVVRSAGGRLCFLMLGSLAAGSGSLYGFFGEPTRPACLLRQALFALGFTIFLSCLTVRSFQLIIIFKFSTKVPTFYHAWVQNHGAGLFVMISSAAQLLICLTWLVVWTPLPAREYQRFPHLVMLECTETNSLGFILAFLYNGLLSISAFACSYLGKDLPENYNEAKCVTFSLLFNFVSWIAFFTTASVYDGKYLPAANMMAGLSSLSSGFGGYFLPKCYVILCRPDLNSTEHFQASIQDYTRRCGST
Sequence (Q7RTX0 21-852): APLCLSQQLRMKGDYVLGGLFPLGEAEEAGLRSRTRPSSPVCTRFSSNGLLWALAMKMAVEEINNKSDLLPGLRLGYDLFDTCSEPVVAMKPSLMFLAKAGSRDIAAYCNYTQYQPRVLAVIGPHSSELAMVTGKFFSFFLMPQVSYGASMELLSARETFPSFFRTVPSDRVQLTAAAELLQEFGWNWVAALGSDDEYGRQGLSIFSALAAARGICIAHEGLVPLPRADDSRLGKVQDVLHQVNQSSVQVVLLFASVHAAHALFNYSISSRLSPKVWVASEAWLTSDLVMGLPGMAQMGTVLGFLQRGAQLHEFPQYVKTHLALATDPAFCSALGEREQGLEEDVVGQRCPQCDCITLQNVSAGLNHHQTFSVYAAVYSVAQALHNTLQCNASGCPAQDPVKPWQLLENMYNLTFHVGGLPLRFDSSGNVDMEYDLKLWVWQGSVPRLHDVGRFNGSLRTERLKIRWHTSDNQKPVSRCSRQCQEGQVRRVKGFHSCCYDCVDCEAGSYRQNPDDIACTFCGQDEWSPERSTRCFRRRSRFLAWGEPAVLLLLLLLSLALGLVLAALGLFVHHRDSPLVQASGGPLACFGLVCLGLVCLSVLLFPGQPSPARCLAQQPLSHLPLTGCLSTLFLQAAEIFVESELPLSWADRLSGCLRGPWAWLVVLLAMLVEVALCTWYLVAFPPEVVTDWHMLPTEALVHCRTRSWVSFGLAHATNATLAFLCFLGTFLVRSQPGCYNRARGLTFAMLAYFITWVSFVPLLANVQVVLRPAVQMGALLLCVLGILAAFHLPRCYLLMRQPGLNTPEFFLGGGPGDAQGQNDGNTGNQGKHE
test_method_notes: in vitro cell-based assay, cells expressing the T1R umami taste receptor; enhancement of MSG
measurement_conditions: MSG enhancement ratio at a particular concentration (concentration not given)
So I've got a bunch of compounds here, and I need their MSG Enh. Ratio values.
Give bare numbers.

Use these answered entries as a reference point.
Which measured MSG Enh. Ratio value corresponds to CC(C)C[C@H](NC(=O)/C=C/c1ccccc1)C(=O)O [Compound 133, Cinnamoyl-L-leucine] ? 1.1

Same read-out for CC(C)C[C@@H](CO)NC(=O)c1ccc2c(c1)OCO2 [Compound 112] ? 2.3

What about COc1ccc(/C=C/C(=O)N[C@@H](Cc2ccc(OC)cc2)C(=O)O)cc1 [Compound 135] ? 2.0

Parameters: items (list). Returns: MSG Enh. Ratio for each item.
1. COc1ccc(C[C@H](NC(=O)c2ccc(C)c(C)c2)C(=O)O)cc1 [Compound 127]
2. Cc1ccc(C(=O)N[C@H](C(=O)O)C(C)C)cc1C [Compound 121, (3,4-dimethylbenzoyl)-L-valine]
3. Cc1ccc(C(=O)N[C@@H](C(=O)O)C(C)C)cc1C [Compound 124, (3,4-dimethylbenzoyl)-D-valine]

[2.0, 1.1, 1.2]

// for each compound below, give its MSG Enh. Ratio
1. CC(C)C[C@@H](NC(=O)c1ccc2c(c1)OCO2)C(=O)O [Compound 129]
2. CCOc1ccc(/C=C/C(=O)N[C@H](CO)CC(C)C)cc1 [Compound 117]
3. Cc1ccc(C(=O)N[C@H](Cc2ccccc2)C(=O)O)cc1 [Compound 120, (4-methylbenzoyl)-D-phenylalanine]
4. COc1ccc(/C=C/C(=O)N[C@@H](CCC(=O)O)C(=O)O)cc1O [Compound 143]
5. COc1cccc(C(=O)N[C@H](CO)Cc2ccccc2)c1O [Compound 113]

3.5
6.8
1.3
1.0
1.6

Below is a list of compounds. For each, state its recorded MSG Enh. Ratio.
1. O=C(N[C@H](CO)Cc1ccccc1)c1ccc2c(c1)OCO2 [Compound 111]
2. CC[C@H](C)[C@@H](CO)NC(=O)c1ccc2c(c1)OCO2 [Compound 110]
3. Cc1ccc(C(=O)N[C@@H](CC(C)C)C(=O)O)cc1 [Compound 123, (4-methylbenzoyl)-L-leucine]

[1.8, 1.4, 1.2]

Batch request: MSG Enh. Ratio for each of the following compounds.
1. COc1ccc(/C=C/C(=O)N[C@@H](CC(C)C)C(=O)O)cc1 [Compound 138]
2. CC[C@H](C)[C@@H](CO)NC(=O)c1ccc(C)c(C)c1 [Compound 106]
3. COc1ccc(/C=C/C(=O)N[C@H](CO)CC(C)C)cc1 [Compound 114]

1. 1.0
2. 2.5
3. 1.7

----------
study_target: T1R umami taste receptor (Homo sapiens, UniProt Q7RTX0+Q7RTX1)
test_method_notes: in vitro cell-based assay, cells expressing the T1R umami taste receptor; enhancement of MSG
measurement_conditions: cells that express the T1R umami taste receptor; dose-binding curves
property_label: EC50

Write down the reported EC50 of `CCOc1ccc(/C=C/C(=O)N[C@H](CO)CC(C)C)cc1` , test system: T1R umami taste receptor (Homo sapiens, UniProt Q7RTX0+Q7RTX1). ~25 µM

Now consider `Cc1ccc(C(=O)N[C@H](Cc2ccccc2)C(=O)O)cc1C` . > 50 µM

# return EC50 for each item in the list
1. COc1ccc(/C=C/C(=O)N[C@@H](CC(C)C)C(=O)O)cc1
2. COc1ccc(/C=C/C(=O)N[C@H](CC(C)C)C(=O)O)cc1
3. O=C(N[C@H](CO)Cc1ccccc1)c1ccc2c(c1)OCO2

> 50 µM
7.74 µM
> 50 µM

Give measured EC50 for every item shown.
1. CC[C@H](C)[C@@H](CO)NC(=O)c1ccc(C(C)C)cc1
2. COc1ccc(C[C@H](NC(=O)/C=C/c2ccc(OC)c(OC)c2)C(=O)O)cc1
3. CC(C)C[C@@H](CO)NC(=O)c1ccc(C(C)C)cc1
4. O=C(O)CC[C@H](NC(=O)c1ccc2c(c1)OCO2)C(=O)O
5. COc1ccc(C[C@H](NC(=O)c2ccc(C)c(C)c2)C(=O)O)cc1
6. CC(C)c1ccc(C(=O)N[C@H](CO)Cc2ccccc2)cc1

1. > 50 µM
2. > 50 µM
3. > 50 µM
4. > 50 µM
5. > 50 µM
6. > 50 µM

The following compounds each have a reported value; give each one's EC50.
1. CC(C)C[C@H](NC(=O)/C=C/c1ccccc1)C(=O)O
2. CCOc1ccc(/C=C/C(=O)N[C@H](CO)[C@@H](C)CC)cc1
3. COc1cccc(C(=O)N[C@H](CO)Cc2ccccc2)c1O
4. Cc1ccc(C(=O)N[C@@H](CC(C)C)C(=O)O)cc1
5. COc1ccc(/C=C/C(=O)N[C@@H](Cc2ccc(OC)cc2)C(=O)O)cc1 [Compound 135]
6. Cc1ccc(C(=O)N[C@@H](C(=O)O)C(C)C)cc1C

1: > 50 µM; 2: ~40 µM; 3: > 50 µM; 4: > 50 µM; 5: > 50 µM; 6: > 50 µM

Respectfully, I request EC50 for each entry included below.
1. COc1ccc(/C=C/C(=O)N[C@@H](Cc2ccc(OC)cc2)C(=O)O)cc1 [Compound 140]
2. CC(C)/C=C/C(=O)N[C@@H](CCC(=O)O)C(=O)O
3. Cc1ccc(C(=O)N[C@H](CO)Cc2ccccc2)cc1C
4. COc1ccc(/C=C/C(=O)N[C@H](CO)CC(C)C)cc1
5. CC[C@H](C)[C@H](NC(=O)/C=C/c1ccc(OC)cc1)C(=O)O
6. CC(C)[C@H](NC(=O)/C=C/c1ccccc1)C(=O)O

1. > 50 µM
2. > 50 µM
3. > 50 µM
4. > 50 µM
5. > 50 µM
6. > 50 µM

Provide EC50 values for the following items, in order.
1. COc1ccc(/C=C/C(=O)N[C@H](CO)Cc2ccccc2)cc1
2. CC[C@H](C)[C@@H](CO)NC(=O)c1cc(OC)cc(OC)c1
3. COc1ccc(/C=C/C(=O)N[C@H](CCC(=O)O)C(=O)O)cc1O
4. COc1cc(OC)cc(C(=O)N[C@H](CO)Cc2ccccc2)c1
5. COc1ccc(/C=C/C(=O)N[C@H](C(=O)O)C(C)C)cc1

11 µM
> 50 µM
> 50 µM
> 50 µM
> 50 µM

// batch mode: one EC50 value per listed entry
1. CCOc1ccc(/C=C/C(=O)N[C@H](CO)Cc2ccccc2)cc1
2. COc1cc(OC)cc(C(=O)N[C@H](CO)CC(C)C)c1
3. O=C(O)CC[C@H](NC(=O)/C=C/c1ccccc1)C(=O)O [Compound 134, Cinnamoyl-L-glutamate]
4. CC(C)C[C@@H](CO)NC(=O)c1ccc2c(c1)OCO2
5. Cc1ccc(C(=O)N[C@H](CC(C)C)C(=O)O)cc1C

1: 10 µM; 2: > 50 µM; 3: > 50 µM; 4: > 50 µM; 5: 27 µM

For each of the compounds below, state EC50.
1. Cc1ccc(C(=O)N[C@H](C(=O)O)C(C)C)cc1C
2. CC[C@H](C)[C@@H](CO)NC(=O)c1ccc(C)c(C)c1

1. > 50 µM
2. > 50 µM
